Target: Gamma-secretase
Experiment: Inhibition of gamma-secretase in human H4 cells assessed as reduction in amyloid beta 42
observationType: IC50
Quick note: number first, unit second.

Return IC50 (reported value) for this compound: CC(C)[C@H](O)C(=O)N[C@@H](C)C(=O)N[C@@H]1C(=O)N(C)CCc2ccccc21 10.9 nM

====

Experiment: Metabolic stability in human liver microsomes assessed as half life
Assay type: ADME, Microsome
observationType: half-life (h)
Respond numerically; units are h and should not be typed.

Give reported half-life value for O=S(=O)(N[C@H](CO)C(C(F)(F)F)C(F)(F)F)c1ccc(Cl)s1 [BEGACESTAT] 1.5

====

Assay: Modulation of gamma-secretase in human H4 cells expressing APPswe mutant assessed as reduction in amyloid beta 42 by ELISA
Assay type: cell-based
observationType: IC50 (µM)
Numeric only. Scale: µM

Query IC50 for O=C(O)C1(c2ccc(-c3ccc(Cl)c(Cl)c3)c(F)c2)CC1 3.6
